Where do these numbers come from? They come from patent US12122778B2.

# target: UniProt:P30613
# assay_protocol: Luminescence Biochemical Assay (Kinase Glo Plus), wild type PKR
# settings: without FBP, 1.54 μM compound, read-out: AC50 LUM KGP woFBP % Fold@1.54 μM mean
assay_metric: activation at 1.54 µM

Guide cases for activation at 1.54 µM, answers given:
- compound: "COc1cccc(CNC(=O)N2CC3=C(C2)CN(S(=O)(=O)c2ccc4ncsc4c2)C3)c1 [Example 21-17]"
  assay_metric: "activation at 1.54 µM"
  measured_value: "75 to 250%"
- compound: "O=C([C@H](O)c1ccccc1)N1CC2=C(C1)CN(S(=O)(=O)c1cc(F)cc(F)c1)C2 [Example 18-52]"
  assay_metric: "activation at 1.54 µM"
  measured_value: "75 to 250%"
- compound: "O=C(NCC1CCOC1)N1CC2=C(C1)CN(S(=O)(=O)c1ccc3occc3c1)C2 (stereo not shown) [Example 3-5]"
  assay_metric: "activation at 1.54 µM"
  measured_value: "75 to 250%"

Inquiry: Annotate the compound Cc1ccc(C(C)NC(=O)N2CC3=C(C2)CN(S(=O)(=O)c2ccc(OC(F)F)cc2)C3)o1 (stereo not shown) [Example 21-3] with its measured activation at 1.54 µM.
Reply text: 75 to 250%

Inquiry: Annotate the compound O=C(Cc1cnccn1)N1CC2=C(C1)CN(S(=O)(=O)c1ccc(OC(F)F)cc1)C2 [Example 18-29] with its measured activation at 1.54 µM.
Reply text: 75 to 250%

====

Recorded AC50 for the following compounds
# target: PKR(G332S) (Homo sapiens, UniProt P30613, G332S)
# Sequence (P30613 whole entry G332S): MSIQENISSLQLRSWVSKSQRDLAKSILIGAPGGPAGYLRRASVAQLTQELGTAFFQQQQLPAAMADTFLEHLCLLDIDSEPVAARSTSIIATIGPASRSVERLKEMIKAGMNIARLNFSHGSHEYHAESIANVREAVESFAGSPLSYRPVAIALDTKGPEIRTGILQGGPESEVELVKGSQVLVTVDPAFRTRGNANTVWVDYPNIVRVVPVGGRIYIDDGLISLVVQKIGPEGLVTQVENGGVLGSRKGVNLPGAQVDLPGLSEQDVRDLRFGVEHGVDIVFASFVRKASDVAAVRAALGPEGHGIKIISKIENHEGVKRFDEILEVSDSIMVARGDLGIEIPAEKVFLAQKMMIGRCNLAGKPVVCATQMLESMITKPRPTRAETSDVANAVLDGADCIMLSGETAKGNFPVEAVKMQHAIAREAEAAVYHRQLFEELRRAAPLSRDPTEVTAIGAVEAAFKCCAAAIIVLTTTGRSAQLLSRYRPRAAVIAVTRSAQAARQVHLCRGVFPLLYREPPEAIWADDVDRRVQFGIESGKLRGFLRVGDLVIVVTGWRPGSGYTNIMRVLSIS
# assay_protocol: Luminescence Biochemical Assay (Kinase Glo Plus), PKR G332S mutant
# settings: with FBP, read-out: AC50 LUM KGP FBP AC50 μM gmean (column A)

Inquiry: Annotate the compound O=C(Cc1ccc(F)cc1F)N1CC2=C(C1)CN(S(=O)(=O)c1cccnc1)C2 with its measured AC50.
Reply text: 1 to 40 µM

====

Recorded activation at 1.54 µM for the following compounds
# target: PKR(wt) (Homo sapiens, UniProt P30613)
# Sequence (P30613 whole entry): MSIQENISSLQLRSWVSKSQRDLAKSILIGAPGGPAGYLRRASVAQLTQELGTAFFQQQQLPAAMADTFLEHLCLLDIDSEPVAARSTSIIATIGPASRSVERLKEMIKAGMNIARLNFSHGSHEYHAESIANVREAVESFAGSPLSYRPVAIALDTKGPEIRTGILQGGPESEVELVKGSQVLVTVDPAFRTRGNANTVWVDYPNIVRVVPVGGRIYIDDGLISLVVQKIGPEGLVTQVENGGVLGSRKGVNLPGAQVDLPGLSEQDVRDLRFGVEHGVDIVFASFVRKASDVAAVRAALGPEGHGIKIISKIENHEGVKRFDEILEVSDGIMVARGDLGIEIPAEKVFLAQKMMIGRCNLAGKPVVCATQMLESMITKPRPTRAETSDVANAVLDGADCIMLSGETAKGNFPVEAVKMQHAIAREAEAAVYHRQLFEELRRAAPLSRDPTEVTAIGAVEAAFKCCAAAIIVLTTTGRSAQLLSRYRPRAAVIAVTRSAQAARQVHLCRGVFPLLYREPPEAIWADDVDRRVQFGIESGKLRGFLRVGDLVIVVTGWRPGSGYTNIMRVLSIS
# assay_protocol: Luminescence Biochemical Assay (Kinase Glo Plus), wild type PKR
# settings: without FBP, 1.54 μM compound, read-out: AC50 LUM KGP woFBP % Fold@1.54 μM mean
# Procedure: In some embodiments, a PKR Activating Compound can have: (1) an AC50 value of less than 0.1 μM (e.g., compounds with AC50 values of “+++” in Table 13), 0.1-1.0 μM (e.g., compounds with AC50 values of “++” in Table 13), or 1.01-40 μM (e.g., compounds with AC50 values of “+” in Table 13); (2) a MAX % Fold of 75%-250%, 250-500%, or 75%-500%; and/or (3) a % Fold@1.54 μM of 75%-250%, 250-500%, or 75%-500%. […]

Guide cases for activation at 1.54 µM, answers given:
- compound: "O=C(NCc1ccccc1F)N1CC2=C(C1)CN(S(=O)(=O)c1cccnc1)C2"
  activation at 1.54 µM: "75 to 250%"
- compound: "O=C(NCc1ccccc1F)N1CC2=C(C1)CN(S(=O)(=O)c1ccc(OC(F)F)cc1)C2"
  activation at 1.54 µM: "250 to 50000%"
- compound: "O=C([C@@H](O)c1ccccn1)N1CC2=C(C1)CN(S(=O)(=O)c1ccc(OC(F)F)cc1)C2 (single isomer, unassigned)"
  activation at 1.54 µM: "250 to 50000%"
- compound: "O=C(NCc1cccnc1)N1CC2=C(C1)CN(S(=O)(=O)c1ccc3occc3c1)C2"
  activation at 1.54 µM: "75 to 250%"
- compound: "COc1ccccc1CNC(=O)N1CC2=C(C1)CN(S(=O)(=O)c1ccc3ncsc3c1)C2"
  activation at 1.54 µM: "250 to 50000%"
- compound: "O=C(NCc1ccc(F)cc1)N1CC2=C(C1)CN(S(=O)(=O)c1ccc(C(F)(F)F)nc1)C2"
  activation at 1.54 µM: "75 to 250%"

Continue with the compound presented below.
Inquiry: Annotate the compound O=C([C@H](O)c1ccccc1)N1CC2=C(C1)CN(S(=O)(=O)c1cccc(C(F)(F)F)n1)C2 with its measured activation at 1.54 µM.
Reply text: 75 to 250%
